# Test system: norepinephrine (NE) uptake [ノルエピネフリン(NE)の取り込み]
# test: norepinephrine (NE) uptake inhibition
# Assay type: biochemical
# test parameters: rat cerebral cortex, 3H-NE as substrate
pIC50: −log10 of the molar value.
recorded metric: pIC50

- compound: "CCCN1CCCCC12CCc1cc(OCc3cccc(C#N)c3)ccc1C2 (stereo not drawn)"
  experimental target: "norepinephrine (NE) uptake [ノルエピネフリン(NE)の取り込み]"
  assay value: 7.21
- compound: "CCCN1CCCCC12CCc1cc(OCc3ccc(F)cc3)ccc1C2 (stereo not drawn)"
  experimental target: "norepinephrine (NE) uptake [ノルエピネフリン(NE)の取り込み]"
  assay value: 7.01
- compound: "CCCN1CCCCC12CCc1cc(OCc3ccc(Cl)cc3Cl)ccc1C2 (stereo not drawn)"
  experimental target: "norepinephrine (NE) uptake [ノルエピネフリン(NE)の取り込み]"
  assay value: 7.17
